// provenance: patent US20130230459A1

Subject of test: mGluR2 (Rattus norvegicus, UniProt P31421)
Construct: from tissue; host or cells: brain of living male Wistar rats (in vivo microPET)
Sequence (P31421 19-872): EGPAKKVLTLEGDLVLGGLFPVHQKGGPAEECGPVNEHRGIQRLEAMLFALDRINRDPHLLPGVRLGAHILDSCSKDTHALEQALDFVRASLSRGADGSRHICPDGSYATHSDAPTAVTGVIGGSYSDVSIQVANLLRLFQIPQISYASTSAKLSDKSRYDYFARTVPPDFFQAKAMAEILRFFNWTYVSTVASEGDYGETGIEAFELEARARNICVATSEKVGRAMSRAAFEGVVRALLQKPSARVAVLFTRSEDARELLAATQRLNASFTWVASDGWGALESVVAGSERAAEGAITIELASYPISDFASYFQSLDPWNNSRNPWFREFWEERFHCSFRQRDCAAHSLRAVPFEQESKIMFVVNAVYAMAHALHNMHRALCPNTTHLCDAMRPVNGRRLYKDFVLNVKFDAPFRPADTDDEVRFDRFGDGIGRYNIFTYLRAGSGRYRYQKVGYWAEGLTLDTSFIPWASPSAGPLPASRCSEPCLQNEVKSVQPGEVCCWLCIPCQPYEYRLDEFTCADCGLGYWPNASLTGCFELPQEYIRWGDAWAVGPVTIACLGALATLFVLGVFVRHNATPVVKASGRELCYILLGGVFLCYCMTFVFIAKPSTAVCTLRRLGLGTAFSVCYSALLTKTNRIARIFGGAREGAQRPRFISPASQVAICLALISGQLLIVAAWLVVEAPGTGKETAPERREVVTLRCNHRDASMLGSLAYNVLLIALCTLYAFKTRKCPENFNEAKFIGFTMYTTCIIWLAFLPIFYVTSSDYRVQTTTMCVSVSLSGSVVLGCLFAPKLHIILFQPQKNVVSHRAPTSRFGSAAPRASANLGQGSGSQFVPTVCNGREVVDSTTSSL
Assay protocol: MicroPET imaging: baseline, blocking and chase experiments
Format: in vivo, Wistar rats
Measurement conditions: minimum SUV; chase compound B 4 mg/kg i.v. 30 min after tracer
Property measured: SUV (total brain) after chase

[[record]]
molecule = "[11CH3]Oc1ccc(F)cc1C1CCN(c2ccn3c(CC4CC4)nnc3c2Cl)CC1 [[^11C]B-4]"
property_measured = "SUV (total brain) after chase"
reported_value = 0.32

[[record]]
molecule = "[11CH3]Oc1cc(F)cc(F)c1C1CCN(c2ccn3c(CC4CC4)nnc3c2Cl)CC1 [[^11C]B-7]"
property_measured = "SUV (total brain) after chase"
reported_value = 0.5

[[record]]
molecule = "[11CH3]Oc1ccc(F)c(F)c1C1CCN(c2ccn3c(CC4CC4)nnc3c2Cl)CC1 [[^11C]B-10]"
property_measured = "SUV (total brain) after chase"
reported_value = 0.5

[[record]]
molecule = "[11CH3]Oc1c(F)ccc(F)c1C1CCN(c2ccn3c(CC4CC4)nnc3c2Cl)CC1 [[^11C]B-2]"
property_measured = "SUV (total brain) after chase"
reported_value = 0.38


* * *

Assay protocol: Biodistribution studies of 11C tracers
Type: in vivo, Wistar rats
Measurement conditions: 60 min p.i., normalized for body weight
Method: Biodistribution studies were carried out in healthy male Wistar rats (body weight 200-450 g) at 2 min, 30 min and 60 min post injection (p.i.) (n=3/time point). […] The radioactivity in blood, organs and other body parts was measured using an automated gamma counter. […] For calculation of total radioactivity in blood, blood mass was assumed to be 7% of the body mass.
Measured SUV Blood accompanies every entry in the list below.
Output spec: single numeric token, no unit.

[[record]]
compound = "[11CH3]Oc1cccc(F)c1C1CCN(c2ccn3c(CC4CC4)nnc3c2Cl)CC1 [[^11C]B-6]"
property_measured = "SUV Blood"
reported_value = 0.50

[[record]]
compound = "[11CH3]Oc1ccc(F)c(F)c1C1CCN(c2ccn3c(CC4CC4)nnc3c2Cl)CC1 [[^11C]B-10]"
property_measured = "SUV Blood"
reported_value = 0.50


Please find the next compound below.
Lookup result for [11CH3]Oc1ccc(F)cc1C1CCN(c2ccn3c(CC4CC4)nnc3c2Cl)CC1 [[^11C]B-4] ; measured SUV Blood: 0.50

* * *

Assay protocol: Biodistribution studies of 11C tracers
Type: in vivo, Wistar rats
Measurement conditions: 30 min p.i.
Property measured: % ID Cerebrum total (% ID)

[[record]]
molecule = "[11CH3]Oc1c(F)ccc(F)c1C1CCN(c2ccn3c(CC4CC4)nnc3c2Cl)CC1 [[^11C]B-2]"
reported_value = 0.914

[[record]]
molecule = "[11CH3]Oc1c(F)ccc(F)c1C1CCN(c2ccn3c(CC4CC4)nnc3c2C(F)(F)F)CC1 [[^11C]B-3]"
reported_value = 0.489

[[record]]
molecule = "[11CH3]Oc1ccc(F)c(F)c1C1CCN(c2ccn3c(CC4CC4)nnc3c2Cl)CC1 [[^11C]B-10]"
reported_value = 0.637

[[record]]
molecule = "[11CH3]Oc1cc(F)cc(F)c1C1CCN(c2ccn3c(CC4CC4)nnc3c2Cl)CC1 [[^11C]B-7]"
reported_value = 0.718

[[record]]
molecule = "[11CH3]Oc1ccc(F)cc1C1CCN(c2ccn3c(CC4CC4)nnc3c2Cl)CC1 [[^11C]B-4]"
reported_value = 0.694

[[record]]
molecule = "[11CH3]Oc1cccc(F)c1C1CCN(c2ccn3c(CC4CC4)nnc3c2Cl)CC1 [[^11C]B-6]"
reported_value = 0.723


* * *

Assay protocol: Biodistribution studies of 11C tracers
Assay type: in vivo, Wistar rats
Measurement conditions: 60 min p.i.
Property measured: % ID Cortex (% ID)

[[record]]
compound = "[11CH3]Oc1c(F)ccc(F)c1C1CCN(c2ccn3c(CC4CC4)nnc3c2Cl)CC1 [[^11C]B-2]"
readout_units = "% ID"
reported_value = 0.080

[[record]]
compound = "[11CH3]Oc1cccc(F)c1C1CCN(c2ccn3c(CC4CC4)nnc3c2Cl)CC1 [[^11C]B-6]"
readout_units = "% ID"
reported_value = 0.074

[[record]]
compound = "[11CH3]Oc1ccc(F)c(F)c1C1CCN(c2ccn3c(CC4CC4)nnc3c2Cl)CC1 [[^11C]B-10]"
readout_units = "% ID"
reported_value = 0.070

[[record]]
compound = "[11CH3]Oc1c(F)ccc(F)c1C1CCN(c2ccn3c(CC4CC4)nnc3c2C(F)(F)F)CC1 [[^11C]B-3]"
readout_units = "% ID"
reported_value = 0.069

[[record]]
compound = "[11CH3]Oc1ccc(F)cc1C1CCN(c2ccn3c(CC4CC4)nnc3c2Cl)CC1 [[^11C]B-4]"
readout_units = "% ID"
reported_value = 0.097

[[record]]
compound = "[11CH3]Oc1cc(F)cc(F)c1C1CCN(c2ccn3c(CC4CC4)nnc3c2Cl)CC1 [[^11C]B-7]"
readout_units = "% ID"
reported_value = 0.059


* * *

Assay protocol: Biodistribution studies of 11C tracers
Format: in vivo, Wistar rats
Measurement conditions: 60 min p.i.
Property measured: % ID Liver (% ID)

[[record]]
compound = "[11CH3]Oc1cc(F)cc(F)c1C1CCN(c2ccn3c(CC4CC4)nnc3c2Cl)CC1 [[^11C]B-7]"
property_measured = "% ID Liver"
readout_units = "% ID"
reported_value = 15.3

[[record]]
compound = "[11CH3]Oc1cccc(F)c1C1CCN(c2ccn3c(CC4CC4)nnc3c2Cl)CC1 [[^11C]B-6]"
property_measured = "% ID Liver"
readout_units = "% ID"
reported_value = 18.6

[[record]]
compound = "[11CH3]Oc1ccc(F)cc1C1CCN(c2ccn3c(CC4CC4)nnc3c2Cl)CC1 [[^11C]B-4]"
property_measured = "% ID Liver"
readout_units = "% ID"
reported_value = 15.4

[[record]]
compound = "[11CH3]Oc1c(F)ccc(F)c1C1CCN(c2ccn3c(CC4CC4)nnc3c2C(F)(F)F)CC1 [[^11C]B-3]"
property_measured = "% ID Liver"
readout_units = "% ID"
reported_value = 23.6


a: [11CH3]Oc1c(F)ccc(F)c1C1CCN(c2ccn3c(CC4CC4)nnc3c2Cl)CC1 [[^11C]B-2]
b: [11CH3]Oc1ccc(F)c(F)c1C1CCN(c2ccn3c(CC4CC4)nnc3c2Cl)CC1 [[^11C]B-10]
// pick larger % ID Liver from pair: a vs b Field: selected label. Fill in the label of the entry you choose.
a
(a: 20.1 % ID, b: 13.7 % ID)

* * *

Measured SUV Cortex accompanies every entry in the list below.
Assay protocol: Biodistribution studies of 11C tracers
Format: in vivo, Wistar rats
Measurement conditions: 30 min p.i., normalized for body weight
Output spec: single numeric token, no unit.

[[record]]
molecule = "[11CH3]Oc1cc(F)cc(F)c1C1CCN(c2ccn3c(CC4CC4)nnc3c2Cl)CC1 [[^11C]B-7]"
property_measured = "SUV Cortex"
reported_value = 1.72


Please find the next molecule below.
Lookup result for [11CH3]Oc1cccc(F)c1C1CCN(c2ccn3c(CC4CC4)nnc3c2Cl)CC1 [[^11C]B-6] ; measured SUV Cortex: 1.47

* * *

Assay protocol: Biodistribution studies of 11C tracers
Assay type: in vivo, Wistar rats
Measurement conditions: 2 min p.i.
Property measured: % ID Urine (% ID)

[[record]]
compound = "[11CH3]Oc1c(F)ccc(F)c1C1CCN(c2ccn3c(CC4CC4)nnc3c2Cl)CC1 [[^11C]B-2]"
reported_value = 0.1

[[record]]
compound = "[11CH3]Oc1cccc(F)c1C1CCN(c2ccn3c(CC4CC4)nnc3c2Cl)CC1 [[^11C]B-6]"
reported_value = 0.1

[[record]]
compound = "[11CH3]Oc1ccc(F)c(F)c1C1CCN(c2ccn3c(CC4CC4)nnc3c2Cl)CC1 [[^11C]B-10]"
reported_value = 0.1

[[record]]
compound = "[11CH3]Oc1ccc(F)cc1C1CCN(c2ccn3c(CC4CC4)nnc3c2Cl)CC1 [[^11C]B-4]"
reported_value = 0.0

[[record]]
compound = "[11CH3]Oc1cc(F)cc(F)c1C1CCN(c2ccn3c(CC4CC4)nnc3c2Cl)CC1 [[^11C]B-7]"
reported_value = 0.1

[[record]]
compound = "[11CH3]Oc1c(F)ccc(F)c1C1CCN(c2ccn3c(CC4CC4)nnc3c2C(F)(F)F)CC1 [[^11C]B-3]"
reported_value = 0.1


* * *

Assay protocol: Biodistribution studies of 11C tracers
Assay type: in vivo, Wistar rats
Measurement conditions: 60 min p.i.
Property measured: % ID present in liver and intestines (% ID)

[[record]]
molecule = "[11CH3]Oc1c(F)ccc(F)c1C1CCN(c2ccn3c(CC4CC4)nnc3c2Cl)CC1 [[^11C]B-2]"
reported_value = 35.7

[[record]]
molecule = "[11CH3]Oc1c(F)ccc(F)c1C1CCN(c2ccn3c(CC4CC4)nnc3c2C(F)(F)F)CC1 [[^11C]B-3]"
reported_value = 38.4

[[record]]
molecule = "[11CH3]Oc1ccc(F)cc1C1CCN(c2ccn3c(CC4CC4)nnc3c2Cl)CC1 [[^11C]B-4]"
reported_value = 26.5

[[record]]
molecule = "[11CH3]Oc1ccc(F)c(F)c1C1CCN(c2ccn3c(CC4CC4)nnc3c2Cl)CC1 [[^11C]B-10]"
reported_value = 25.5

[[record]]
molecule = "[11CH3]Oc1cccc(F)c1C1CCN(c2ccn3c(CC4CC4)nnc3c2Cl)CC1 [[^11C]B-6]"
reported_value = 30.6

[[record]]
molecule = "[11CH3]Oc1cc(F)cc(F)c1C1CCN(c2ccn3c(CC4CC4)nnc3c2Cl)CC1 [[^11C]B-7]"
reported_value = 28.7

